# System: TK-10 renal
# Assay Notes: NCI-60 one-dose screen, 48 h (100 = growth as untreated, 0 = no growth, -100 = all killed)
# Experimental Conditions: 10 µM unless noted
Compounds without any hit were thinned out: in the full panel of roughly 83,000, 20% have a hit.
Quantity Measured: growth (%)
One number for each entry, in %.

N[C@H]1CN(C(=O)c2cc3cc(Br)c(F)c(F)c3[nH]2)C[C@@H]1O	107
N=c1ccc2nc3ccc(N)cc3sc-2c1	11.9
COc1cccc(CC(C)=C(c2ccc(OCCN(C)C)cc2)c2ccc(OCCN(C)C)cc2)c1	-15.2

Here are 6 compounds. What values of growth were reported for them?
1. C=C[C@@H]1C[C@@H]2Cc3cc(Cl)ccc3N1O2
2. COc1cc(C2C3=C(COC3=O)Nc3cc4c(cc32)OCO4)cc2c1OCO2 (stereo unspecified)
3. Cn1ncc2c(Sc3ccc(Cl)cc3)ncnc21
4. CN(CCCCCl)P(=O)(OCc1ccc([N+](=O)[O-])o1)C(F)(F)C[C@H](NC(=O)CNC(=O)c1ccc(N=[N+]=[N-])cc1)C(=O)NCCc1ccc(O)cc1 (stereo partly specified)
5. CC(C)CC1NC(C)(C)CO1 (stereo unspecified)
6. CCC(=O)OC1=CN2C(=NC(c3ccc(N)cc3)=CC2c2cc(OC)c(OC)c(OC)c2)S1 (stereo unspecified)

101
55
82.7
121
96.4
79.2

Record growth per entry; entries follow.
1. CCCCCCCCCCCC(=O)NCCC[N+](C)(C)CC(=O)[O-]
2. NC(=S)N/N=C(/CCN1CCCC1)CC(C1=C(O)C2=CCCCC2OC1=O)c1ccccc1 (stereo unspecified)
3. COc1ccc(/C=C2\CN(Cc3cn(CCNc4ccnc5cc(Cl)ccc45)nn3)C/C(=C\c3ccc(OC)c(OC)c3)C2=O)cc1OC
4. O=[N+]([O-])c1ccc(Sc2ncccn2)c([N+](=O)[O-])c1
5. O=C(NNC(=O)N1c2ccccc2C=Cc2ccccc21)c1ccc2ccccc2c1

1: 76.6; 2: 120; 3: 8.71; 4: 53.7; 5: 102

Batch: growth for all items listed.
1. Brc1ccc(-c2[nH]ncc2-c2c[nH]c3ccccc23)cc1
2. CN1C(=O)N(C)C2C1NN=c1s/c(=C\C=C\c3ccccc3)c(=O)n12 (stereo unspecified)
3. COc1cc(C2C3=C(COC3=O)Nc3cc4c(cc32)CCC4)cc2c1OCO2 (stereo unspecified)
4. COc1cc(C2CC(c3ccc4c(c3)OCO4)=NN2C=O)cc(OC)c1OC (stereo unspecified)
5. COc1cc2c(cc1O)CCN1C[C@@H](CC(C)C)[C@@H](O)C[C@@H]21

129
80
67.4
53.2
97

// each compound listed below needs its growth
1. COc1ccc2c(c1)[nH]c(=O)c1c3cc(OC)ccc3cn21
2. COc1ccc(CN2CCc3c(Sc4ccccc4)nc(N)nc3C2=O)c(OC)c1
3. O=C(O)/C=C/C(=O)c1ccc(Cl)cc1
4. CCC1=CCC[C@@]2(C)CCC[C@@]3(C)CCCC(C)(C)[C@]1([O-])[O+]32
5. S=C(S)NCCc1c[nH]c2ccccc12
6. O=C(Nc1cccc(-n2cc(-c3ccncc3)c(-c3ccc(Cl)c(O)c3)n2)c1)Nc1cc(C(F)(F)F)cc(C(F)(F)F)c1

1: 48.7; 2: 59.9; 3: 105; 4: 109; 5: 128; 6: -24.6

Required: growth, one value per compound below.
1. O=C1/C(=C/c2ccc(Cl)cc2)CN(C(=O)CCN2CCC(=NO)CC2)C/C1=C\c1ccc(Cl)cc1
2. CC(C)(C)N1CCC1C(N)=O (stereo unspecified)
3. O=[N+]([O-])c1cc(S(=O)(=O)Oc2ccccc2)ccc1Cl
4. COc1cc(-c2nn(-c3cccc(NC(=O)Nc4cc(C(F)(F)F)cc(C(F)(F)F)c4)c3)cc2-c2ccncc2)ccc1Cl
5. COc1ccc(-n2c(=O)sc3c(Cl)nc(C)nc32)c(OC)c1
6. COc1cc(C(=O)/C=C/c2c(C)n([O-])c3ccc(C(F)(F)F)cc3[n+]2=O)cc(OC)c1OC
7. COC(=O)c1nc(-c2ccccc2)oc1S(=O)(=O)N1CCN(c2cccc(Cl)c2)CC1

-74.7
91.8
52.3
-26.7
115
42.4
89.4

Hi! Can you tell me growth for each of these compounds?
1. COc1ccc(-c2cc(-c3ccccc3)nc(SCCCC(=O)NO)n2)cc1OC
2. O=C(NNC(=O)N1c2ccccc2C=Cc2ccccc21)c1ccccc1
3. NC1=NN(O)C2=CC([N+](=O)[O-])C=CC2=N1 (stereo unspecified)
4. Cc1ccc(C(=O)NCCCNc2nccc(-n3ccc4cccnc43)n2)cc1
5. COc1cc(-c2nn(-c3cccc(NC(=O)Nc4ccc(Cl)c(C(F)(F)F)c4)c3)cc2-c2ccncc2)ccc1Cl
6. Cc1ccc2ccccc2c1C[n+]1ccccc1

[4.89, 96, 121, 67.7, 12.6, 88.4]

Count: 3. Required value per item: growth.
1. CC12CCCC(CC(=O)c3[nH]c4ccccc4c31)C2 (stereo unspecified)
2. OB(O)c1cccc(-c2nc3ccc4[nH]ncc4c3c3c2CCCC3)c1F
3. COc1cc(-c2nn(-c3cccc(NC(=O)Nc4cccc(C(F)(F)F)c4)c3)cc2-c2ccncc2)ccc1Cl

75.4
18.3
2.65

The reported measurements were obtained from PubChem BioAssay (NCI).
